Experiment: protein stability index of a GFP-peptide fusion (GPS, HEK-293T) (PSI 1-6); higher = more stable;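 note: 24-mer peptide tiles fused after GFP, lentivirally expressed, FACS-sorted into six equal bins by GFP/DsRed ratio, decoded by Illumina sequencing, PSI is the read-weighted mean bin number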
Settings: treatment: DMSO; c terminus: a fixed tail appended
Overview of recorded protein stability index for various sequences
Form: value (number only, do not type unit).

Use these answered entries as a reference point.
FKLDKKYQRPQDSEDMWGDEDFTF [FBF1] ... 4.12
RLLRDSEAFCHANCSGPAPAAKPD [P3H4] ... 4.01
PVCADLQAKILQCYRENTHQTLKC [CHCHD3] ... 3.02
ALSRKKSQGLAREQHAGTSEGLHL [FBF1] ... 4.26
MPPKKQAQAGGSKKAEQKKKEKII [ZC3H15] ... 4.63
RAPLHSVGYTALVGSDAESWGWDL [SPSB4] ... 2.81
ANAVISVSGINHDVTSGDHGDYFR [CPN1] ... 3.58
GSTNLTGLFFPPQLNGTANDTAGP [NFE2L1] ... 3.93

Ask | Need protein stability index of KGLEDTKSPQFNRYFYLLENIAWV [PDS5B] , thanks.
Reply | 2.44

Ask | # lookup: protein stability index of APGSSVEYQCQNLYQLEGNNQITC [CFHR2]
Reply | 3.88

Ask | Form field: reported protein stability index of HGLPFLPGTSFKDSTKTAFHRSQT [EFHC1]
Reply | 3.53

Ask | Item DVVEDYKKRYEEEINKRTAAENEF [KRT71] has what recorded protein stability index?
Reply | 5.13

Ask | Quick one: protein stability index of AGSSLPTSSKVNATVPSNMMSVNG [ACBD3] ?
Reply | 4.13

Ask | Which value of protein stability index has been reported for SKYLLEEWFQNCYARYHQAFADRD [TEKT4] in the records?
Reply | 2.48
